System: puberal, female sprague-Dawley rats
assay_protocol: Anti-uterotrophic effect (modified Dorfman Test)
Assay type: in vivo
condition_notes: 3 mg./kg./day by stomach tube, six times weekly over 21 days, 0.25% aqueous agar suspension
measure_name: Uterine Weight compared to Controlled Animals (%)

>  <compound>
CC/C(=C(/c1ccc(OCCN(C)C)cc1)c1cccc(O)c1)c1ccccc1

>  <unit_text>
%

>  <reported_measurement>
-42

$$$$
>  <compound>
CC/C(=C(\c1ccccc1)c1ccc(OCCN(C)C)cc1)c1ccccc1 [Tamoxifen, reference compound]

>  <unit_text>
%

>  <reported_measurement>
-40

$$$$
>  <compound>
CC/C(=C(/c1ccc(OCCNC)cc1)c1cccc(O)c1)c1ccccc1

>  <unit_text>
%

>  <reported_measurement>
-53

$$$$
>  <compound>
CC/C(=C(/c1ccc(OCCN(CC)CC)cc1)c1cccc(O)c1)c1ccccc1

>  <unit_text>
%

>  <reported_measurement>
-39

$$$$
